test system: Panc-1 pancreatic cancer cell line; assay: Cell viability by MTT assay, Panc-1; format: cell-based; conditions: Homo sapiens; Panc-1, MTT, 72 h exposure
reported property: IC50 (µM)
# number only, unit µM dropped from output

// query IC50 value for entry O=C(/C=C/c1ccc(O)cc1)OC[C@H]1O[C@@H](Oc2c(-c3ccc(O)cc3)oc3cc(O)cc(O)c3c2=O)[C@H](O)[C@@H](O)[C@@H]1O [trans-tiliroside]
// result 54
